Listed below: melting point values for each entry.

- COMPOUND: "Cn1c(Nc2c(Cl)cccc2Cl)nc2ccc3nc(-c4csc(CC5CCCN(C(=O)OCc6ccccc6)C5)n4)[nH]c(=O)c3c21 (stereo not shown)"
  PROPERTY: "melting point"
  RESULT: "155 to 160 °C"
- COMPOUND: "Cn1c(Nc2c(Cl)cccc2Cl)nc2ccc3nc(-c4ncc[nH]4)[nH]c(=O)c3c21"
  PROPERTY: "melting point"
  RESULT: "> 300 °C"
- COMPOUND: "Cn1c(Nc2c(Cl)cccc2Cl)nc2ccc3nc(C4=CC(O)CC4)[nH]c(=O)c3c21 (stereo not shown)"
  PROPERTY: "melting point"
  RESULT: "285 °C"

Fill in the blank: the reported melting point of C/C(=C\c1ccccc1N)c1nc2ccc3nc(Nc4c(Cl)cccc4Cl)n(C)c3c2c(=O)[nH]1 is ____. 310 to 313 °C

Request the reported melting point associated with C/C(=C\c1cc(N)cc(N)c1)c1nc2ccc3nc(Nc4c(Cl)cccc4Cl)n(C)c3c2c(=O)[nH]1 195 to 200 °C (dec.)
